Test system: A549 NSCLC
Test: NCI tumour cell line growth inhibition, 48 h
measured endpoint: TGI

Example cases with answers are listed next.
COc1ccc(/C=C/C(=O)c2cc(OC)cc(OC)c2)cc1	6.96 µM
Cc1ccc(S(=O)c2ccccc2[N+](=O)[O-])cc1 (stereo not given)	> 100 µM
NC(N)NCCCc1cn2c(n1)C1CCCN1C(=O)C2Cc1ccccc1 (stereo not given)	> 100 µM
C=C1CC[C@](C)(O)[C@@]2(C)CC[C@H]3C(=C(C)C)C(=O)C[C@]3(C)C[C@H]12	> 50 µM
COc1cc(/C=C/C(=O)c2cccc(-n3cc(-c4ccccc4)[nH]c3=O)c2)cc(OC)c1OC	> 100 µM

Which TGI value is on record for `CCCc1nnc2sc(COc3ccc(OCc4nn5c(CCC)nnc5s4)c(Cl)c3)nn12` ?
> 100 µM

Moving on to `Cc1cn2cc(-c3cccs3)nc2s1`
> 100 µM

Moving on to C[N+]1(C)C2CC(OC(=O)C(CO)c3ccccc3)CC1C1OC12 (stereo not given)
> 100 µM

Moving on to COC(=O)NC(=O)NC(Cc1ccccc1)NC(=O)OCc1ccccc1 (stereo not given)
> 100 µM

Moving on to `CC(C)=CCC/C(C)=C/CC/C(C)=C/CSC[C@H](NC(=O)CCCCCN1CCN(C)CC1)C(=O)NC1CCCCCC1`
7.4 µM

* * *

Quick reference for TGI among some molecules
Test system: HT29 colon
Test: NCI tumour cell line growth inhibition, 48 h
// units = µM; emit number, no label

Example cases with answers are listed next.
CC1=C(O)C(=O)C=C2C1=CC=C1[C@@]2(C)CC[C@@]2(C)C3C[C@@H](C)C(=O)[C@@H](O)[C@]3(C)CC[C@]12C (stereo not given in full)	3.79
COC(=O)C(Cc1ccccc1)NC(=O)CSc1nnc(COc2ccc(Cl)cc2)n1-c1ccccc1 (stereo not given)	53.2

Then there is this molecule:
Which TGI value is on record for `CCNC1=C(NC(=O)c2ccc(F)cc2)C(=O)c2ccccc2C1=O` ?
53.6

* * *

Quick reference for TGI among some compounds
System: NCI-H226 lung
Assay: NCI tumour cell line growth inhibition, 48 h

Example cases with answers are listed next.
O=C(CC(NC(=O)OCc1ccccc1)C(=O)NC1Cc2ccccc2C1=O)OCc1ccccc1 (stereo not given)	> 100 µM
CC(=O)OCC1C(=O)OCC1C(=O)N1Cc2cc3ccccc3nc2C1 (stereo not given)	18.8 µM
N#CC(C#N)=c1c(=O)c2c3ccccc3cc3cccc1c32	> 100 µM
CC(C)(C)CC(C)(C)c1ccc(OCCO)cc1	15.8 µg/mL

Which TGI value is on record for C[C@@H]1C(=O)CC2C(C)(C)CCC[C@]2(C)[C@@]12CC[C@]1(C=COC1)O2 (stereo not given in full) ?
> 100 µM

* * *

Test system: SK-OV-3 ovarian
Experiment: NCI tumour cell line growth inhibition, 48 h; in the data active = GI50 below about 0.43 µM; inactive = the rest
The reply should be one of these categories: 1 for active, -1 for inactive

COc1cc(/C=C/C(=O)c2cccc(-n3cc(-c4ccccc4)[nH]c3=O)c2)cc(OC)c1OC	-1
Cc1cccc2cc(/C=C/C(=O)/C=C/c3ccc(Cl)cc3)c(=O)[nH]c12	-1
C/C(=C\C(=O)O[C@H]1[C@@H]2[C@H](C)CC[C@H]2[C@]2(C)O[C@@]1(C1CCCCC1)C[C@H]2OC(=O)CO)c1ccccc1	-1
COc1cc2cc(NCc3cccc(Cl)c3)nc(C)c2cc1OC	-1
O=C(NCc1cn(Cc2cccc(Oc3ccccc3)c2)nn1)c1cccnc1Nc1ccc(F)cc1	-1
COc1cc(/C=C2\CC3C4CC=C5CC(OC(C)=O)CC[C@]5(C)C4CC[C@]3(C)C2=O)ccc1OCCN1CCCC1 (some centres undefined)	-1
CC(C)=CCc1cc2c(cc1O)C1=C(C(=O)C3=C(NCCS3(=O)=O)C1=O)C(C=C(C)C)O2 (centres undefined)	-1
N#CC1=C(N)Oc2c(sc3c(Br)cccc23)C1c1ccc([N+](=O)[O-])cc1 (centres undefined)	1

Let's switch to this molecule now.
Fill in: this test's call for `CNC(=O)Oc1cc(C(C)C)ccc1Sc1ccc(C(C)C)cc1OC(=O)NC` is ___
-1

All figures here come from PubChem BioAssay (NCI).
